Test: activity coefficient (dimensionless); of the first substance listed, at infinite dilution; xn = mol fraction of the nth substance listed
Settings: 343.15 K; Liquid; Chromatography; x1 = 0
We'd kindly ask you to apply these activity coefficient classes: lowest = under 30, middle = from 30 up to 600, highest = 600 and over

# Molecule, Group
measured = [
    ("c1ccccc1 [benzene] + C[n+]1ccn(CCO)c1.F[B-](F)(F)F", "lowest"),
    ("C1=CCCCC1 [cyclohexene] + C[n+]1ccn(CCO)c1.F[B-](F)(F)F", "middle"),
]

Task: Please indicate the class for CCc1ccccc1 [ethylbenzene] + C[n+]1ccn(CCO)c1.F[B-](F)(F)F based on its activity coefficient.
Result: middle

Task: Where would Cc1cccc(C)c1 [1,3-dimethylbenzene] + C[n+]1ccn(CCO)c1.F[B-](F)(F)F land among the classes by reported activity coefficient?
Result: middle

Task: Please let me know in which category the item Cc1ccccc1 [toluene] + C[n+]1ccn(CCO)c1.F[B-](F)(F)F belongs.
Result: lowest

Task: Please let me know in which category the item Cc1ccccc1C [1,2-dimethylbenzene] + C[n+]1ccn(CCO)c1.F[B-](F)(F)F belongs.
Result: lowest

Task: Field: class (activity coefficient) — entry: CCCCCCCC [octane] + C[n+]1ccn(CCO)c1.F[B-](F)(F)F
Result: highest

====

Assay: activity coefficient (dimensionless); of the first substance listed, at infinite dilution; xn = mol fraction of the nth substance listed
Conditions: 363.15 K; Liquid; Chromatography; x1 = 0
Collected activity coefficient values appear next to each entry.
# answer = number (no unit)

The recorded activity coefficient for C1=CCCCC1 [cyclohexene] + C[n+]1ccn(CCO)c1.F[B-](F)(F)F is 100

Memo: Cc1ccccc1 [toluene] + C[n+]1ccn(CCO)c1.F[B-](F)(F)F , reported activity coefficient: 16.9

====

Assay: activity coefficient (dimensionless); of the first substance listed, at infinite dilution; xn = mol fraction of the nth substance listed
Conditions: 303.15 K; Liquid; Chromatography; x1 = 0
Each record is given Yes if its reported activity coefficient is strictly below 300. Records at or above 300 are given No.

# Compound, Group
rows = [
    ("CCCCCCCC [octane] + C[n+]1ccn(CCO)c1.F[B-](F)(F)F", "No"),
]

Task: Identify whether the compound Cc1cccc(C)c1 [1,3-dimethylbenzene] + C[n+]1ccn(CCO)c1.F[B-](F)(F)F records activity coefficient below 300.
Result: Yes

Task: Bench note: check whether Cc1ccc(C)cc1 [1,4-dimethylbenzene] + C[n+]1ccn(CCO)c1.F[B-](F)(F)F shows activity coefficient below 300
Result: Yes

Task: In the record for C=Cc1ccccc1 [styrene] + C[n+]1ccn(CCO)c1.F[B-](F)(F)F , is activity coefficient less than 300?
Result: Yes

Task: activity coefficient under 300? Item: C1CCCCC1 [cyclohexane] + C[n+]1ccn(CCO)c1.F[B-](F)(F)F
Result: No

====

Quick reference: activity coefficient of the listed items.
Assay: activity coefficient (dimensionless); of the first substance listed, at infinite dilution; xn = mol fraction of the nth substance listed
Settings: 303.15 K; Liquid; Chromatography; x1 = 0
// no unit, no text: just the number

# Compound, activity coefficient
rows = [
    ("c1ccccc1 [benzene] + C[n+]1ccn(CCO)c1.F[B-](F)(F)F", 9.13),
    ("CC1CCCCC1 [methylcyclohexane] + C[n+]1ccn(CCO)c1.F[B-](F)(F)F", 328),
    ("C1=CCCCC1 [cyclohexene] + C[n+]1ccn(CCO)c1.F[B-](F)(F)F", 123),
    ("Cc1ccccc1 [toluene] + C[n+]1ccn(CCO)c1.F[B-](F)(F)F", 18.3),
    ("CCCCCCCCC [nonane] + C[n+]1ccn(CCO)c1.F[B-](F)(F)F", 546),
    ("Cc1ccccc1C [1,2-dimethylbenzene] + C[n+]1ccn(CCO)c1.F[B-](F)(F)F", 28.9),
    ("CCc1ccccc1 [ethylbenzene] + C[n+]1ccn(CCO)c1.F[B-](F)(F)F", 42.1),
    ("CC(C)CC(C)(C)C [2,2,4-trimethylpentane] + C[n+]1ccn(CCO)c1.F[B-](F)(F)F", 412),
]

Note to self: activity coefficient recorded for CCCCCCC [heptane] + C[n+]1ccn(CCO)c1.F[B-](F)(F)F was 620
